// provenance: paper PMC8159961

Examples of compounds with documented Ki follow.
Molecular target: bovine factor Xa (Bos taurus, UniProt P00743)
Construct: bovine factor Xa, Chromogenix, 2 nkat/mL; purchased Chromogenix
Sequence (P00743 234-492 limits assumed): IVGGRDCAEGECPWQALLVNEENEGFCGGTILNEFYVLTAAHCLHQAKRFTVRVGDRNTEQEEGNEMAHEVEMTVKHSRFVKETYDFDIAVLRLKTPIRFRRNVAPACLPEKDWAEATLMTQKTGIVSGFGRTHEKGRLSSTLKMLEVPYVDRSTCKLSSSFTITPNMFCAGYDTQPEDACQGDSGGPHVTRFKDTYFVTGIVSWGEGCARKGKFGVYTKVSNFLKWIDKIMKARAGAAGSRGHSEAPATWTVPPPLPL
Sequence (P00743 41-180 partner limits assumed): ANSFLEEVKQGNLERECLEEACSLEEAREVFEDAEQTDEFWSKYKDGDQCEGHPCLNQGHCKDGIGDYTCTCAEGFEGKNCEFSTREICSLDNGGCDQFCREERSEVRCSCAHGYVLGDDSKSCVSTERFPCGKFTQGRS
Experiment: Protease inhibitory assay, chromogenic substrate S-2222
Type: biochemical
Conditions: plate layout, label = plate position; Cheng-Prusoff, Km 164 µM; read-out: Factor Xa Ki
Kindly answer with a numeric value in µM, unit omitted.

Sample records with Ki:
[
  {
    "compound": "c1ccc(Nc2nncs2)cc1 [D8]",
    "units": "µM",
    "Ki": 733
  },
  {
    "compound": "Cn1c(N)nc2ccccc21 [A6]",
    "units": "µM",
    "Ki": 277
  }
]

Proceed to the following item.
[Q] Kindly state the measured Ki obtained for Oc1ccccc1N1CCCCC1 [A12] with bovine factor Xa (Bos taurus, UniProt P00743).
[A] 611
